Data provenance: PubChem BioAssay (NCI)

- Tested on: LOX IMVI melanoma
- EXPERIMENTAL_PROTOCOL: NCI tumour cell line growth inhibition, 48 h
Entries and their measured TGI follow.

Answered examples (2):
{"COMPOUND": "O=C(NCCCCCCCCNC(=O)c1cnc2ccccc2n1)c1cnc2ccccc2n1", "TGI": "> 100 µM"}
{"COMPOUND": "Clc1ccc2c(SCC3CO3)c3ccccc3nc2c1 (stereo not drawn)", "TGI": "> 100 µM"}

Summary for this compound, C1=C(c2ccccc2)CN(c2ccccc2)OC1 : TGI is > 100 µM

* * *

- System: OVCAR-3 ovarian
- EXPERIMENTAL_PROTOCOL: NCI tumour cell line growth inhibition, 48 h
PROPERTY_MEASURED: TGI

{"COMPOUND": "Cc1nc2c(=S)[nH]ncc2[nH]1", "TGI": "> 100 µM"}
{"COMPOUND": "CC[C@@]1(O)C(=O)OCc2c1cc1n(c2=O)Cc2c-1nc1ccccc1c2/C=N\\NC(=O)C(N)CC(C)C (stereo not given in full)", "TGI": "2.3 µM"}
{"COMPOUND": "c1csc(-c2ccc(-c3ccc(-c4ccc(-c5cccs5)s4)s3)s2)c1", "TGI": "> 100 µM"}
{"COMPOUND": "O=C(O)c1ccccc1.[Ag]", "TGI": "28.5 µM"}
{"COMPOUND": "Cc1ccc(C2CC(=O)CC(c3ccc(C)cc3)C23C(=O)NC(=O)NC3=O)cc1 (stereo not given)", "TGI": "> 100 µM"}

Summary for this compound, COc1ccc(S(=O)(=O)NC(C)C(=O)O)cc1 (stereo not given) : TGI is > 100 µM

Summary for this compound, O=C1N[C@H]2c3c(Cl)sc(Cl)c3/C(=N/O)[C@H]2O1 : TGI is > 100 µM

Summary for this compound, COC(=O)N1CC2(CO)C3CC=C(C(=O)Nc4ccccc4Br)C2C1C3Br (stereo not given) : TGI is > 50 µM

Summary for this compound, O=S(=O)(Oc1ccc2oc3ccccc3c2c1-c1c(OS(=O)(=O)C(F)(F)F)ccc2oc3ccccc3c12)C(F)(F)F : TGI is > 100 µM

Summary for this compound, CCC1(C)NN=c2s/c(=C/c3ccc(OC)cc3)c(=O)n2N1 (stereo not given) : TGI is > 100 µM

Summary for this compound, Cc1nc2sccn2c1/C=C1/C(=O)Nc2ccccc21 : TGI is > 22.8 µM

Summary for this compound, COc1cc(-c2nn3c(/C=C4/C(=O)Nc5ccccc54)c(-c4ccc(C)cc4)nc3s2)cc(OC)c1OC : TGI is > 100 µM

Summary for this compound, O=C(/C=C/c1ccc(B(O)O)cc1)/C=C/c1ccc(B(O)O)cc1 : TGI is 9.27 µM

Summary for this compound, COc1ccc2oc(=N)c(C(=O)Nc3cccc4ccccc34)cc2c1 : TGI is 30.8 µM

Summary for this compound, C=C(CNC(=O)Nc1ccc(-c2ccccc2)cc1)c1ccc(C(=O)Nc2ccccc2N)cc1 : TGI is > 100 µM

Summary for this compound, CCOc1cc2c(cc1O)/C(=N\N)C[C@@H]1[C@@H]2CC[C@]2(C)[C@@H](O)CC[C@@H]12 : TGI is 12.4 µM

Summary for this compound, O=C(CC1=Nc2nnc(-c3nnc4n3C(=O)C(CC(=O)c3cccnc3)=N4)n2C1=O)c1cccnc1 : TGI is > 100 µM

Summary for this compound, O=C1C2CCCCC2C(=O)N1n1c(Cc2ccc(Cl)cc2)n[nH]c1=O (stereo not given) : TGI is > 100 µM

Summary for this compound, OCCOc1ccc(-c2cc(-c3ccccn3)nc(-c3ccccn3)c2)cc1 : TGI is 6.67 µM
